Each recorded value in this set is attributed to patent US20170210813A1.

TESTED ON: T1, human PDGFRb.hFc (human)
T1 construct: Soluble dimeric construct with human Fc; also called hPDGFRb.hFc
ASSAY: SPR, mAb captured, 25 C
VALUE TYPE: kon (M⁻¹ s⁻¹)
The reply should contain only the number, in M⁻¹ s⁻¹.

Below are worked cases with known answers.
H4H3098S (antibody, human IgG4, V domains shown, human IgG4 Fc (H4H prefix)) VH: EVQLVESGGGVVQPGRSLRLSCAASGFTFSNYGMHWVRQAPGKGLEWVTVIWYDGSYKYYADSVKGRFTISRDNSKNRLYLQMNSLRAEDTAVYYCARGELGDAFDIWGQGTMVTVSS VL: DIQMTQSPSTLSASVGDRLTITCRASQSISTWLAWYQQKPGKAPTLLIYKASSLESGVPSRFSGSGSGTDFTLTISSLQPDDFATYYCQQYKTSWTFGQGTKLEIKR    280000
H4H3095S (antibody, human IgG4, V domains shown, human IgG4 Fc (H4H prefix)) VH: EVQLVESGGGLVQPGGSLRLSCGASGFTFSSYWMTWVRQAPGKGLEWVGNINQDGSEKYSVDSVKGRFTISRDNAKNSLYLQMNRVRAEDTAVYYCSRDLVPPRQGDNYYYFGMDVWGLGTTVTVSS VL: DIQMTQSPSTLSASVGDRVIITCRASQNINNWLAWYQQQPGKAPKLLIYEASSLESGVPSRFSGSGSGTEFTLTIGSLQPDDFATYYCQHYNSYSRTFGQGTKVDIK    321000
H4H3104S (antibody, human IgG4, V domains shown, human IgG4 Fc (H4H prefix)) VH: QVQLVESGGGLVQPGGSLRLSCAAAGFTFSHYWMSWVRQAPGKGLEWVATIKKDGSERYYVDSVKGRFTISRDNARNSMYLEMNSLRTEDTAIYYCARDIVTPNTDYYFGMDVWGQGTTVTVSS VL: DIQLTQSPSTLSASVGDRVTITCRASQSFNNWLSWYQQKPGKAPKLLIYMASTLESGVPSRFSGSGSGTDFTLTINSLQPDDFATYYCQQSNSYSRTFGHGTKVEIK    480000

Inquiry: Quick one: give measured kon for H4H3103S (antibody, human IgG4, V domains shown, human IgG4 Fc (H4H prefix)) VH: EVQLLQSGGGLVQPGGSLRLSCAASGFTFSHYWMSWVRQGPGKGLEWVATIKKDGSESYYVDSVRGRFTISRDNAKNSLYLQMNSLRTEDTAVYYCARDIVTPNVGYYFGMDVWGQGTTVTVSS VL: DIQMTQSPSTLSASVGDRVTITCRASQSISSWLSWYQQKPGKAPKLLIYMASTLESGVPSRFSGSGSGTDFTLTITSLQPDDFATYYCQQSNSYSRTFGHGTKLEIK
Reply text: 621000

Inquiry: Quick one: give measured kon for H4H3374N (antibody, human IgG4, V domains shown, human IgG4 Fc (H4H prefix)) VH: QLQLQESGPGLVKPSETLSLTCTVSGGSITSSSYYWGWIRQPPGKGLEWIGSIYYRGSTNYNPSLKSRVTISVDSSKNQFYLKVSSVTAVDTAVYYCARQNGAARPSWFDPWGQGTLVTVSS VL: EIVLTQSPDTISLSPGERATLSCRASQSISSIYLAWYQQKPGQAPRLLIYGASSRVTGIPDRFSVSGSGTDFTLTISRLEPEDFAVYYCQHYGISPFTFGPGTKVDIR
Reply text: 600000
